# Assayed System: Mineralocorticoid receptor (Rattus norvegicus) (UniProt P22199)
# Assay Notes: Relative anti-mineralocorticoid potency compared to Spironolactone after oral administration
# Type: functional, organism-based
Readout: Relative potency
Form rule: numeric answer, no unit written next to it.

Below: 2 molecules and their reported Relative potency.
{"columns": ["Molecule", "Relative potency"],
 "data": [
  ["CC12C=CC(=O)C=C1[C@H]1C[C@H]1C1C2C=CC2(C)C1CC[C@@]21CCC(=O)O1 (stereo not given in full)", 1.31],
  ["CC12C=CC(=O)C=C1C=CC1C2C=CC2(C)C1CC[C@@]21CCC(=O)O1 (stereo not given in full)", 2.08]
]}

Task item: GET /values?readout=Relative potency&item= CC(=O)S[C@@H]1CC2=CC(=O)C=CC2(C)C2C=CC3(C)C(CC[C@@]34CCC(=O)O4)C21 (stereo not given in full)
Reply: 0.77

Task item: GET /values?readout=Relative potency&item= CC12CCC(=O)C=C1[C@H]1C[C@H]1C1C2C=CC2(C)C1CC[C@@]21CCC(=O)O1 (stereo not given in full)
Reply: 1.48

Task item: GET /values?readout=Relative potency&item= CC12CCC(=O)C=C1C=CC1C2C=CC2(C)C1CC[C@@]21CCC(=O)O1 (stereo not given in full)
Reply: 2

----------
Below, each of the compounds is paired with its reported RBA value.
# Assayed System: Mineralocorticoid receptor (Rattus norvegicus)
# Assay Notes: Displacement of [3]Aldosterone from mineralocorticoid receptor of rat renal cytosol at 0 degree Centigrade
A number alone suffices; assume %.

Below: 4 compounds and their reported RBA.
{"columns": ["Compound", "Assayed System", "Readout", "Unit String", "Value Reported"],
 "data": [
  ["CC(C)(C)C(=O)S[C@@H]1CC2=CC(=O)CCC2(C)C2C=CC3(C)C(CC[C@@]34CCC(=O)O4)C21 (stereo not given in full)", "Mineralocorticoid receptor (Rattus norvegicus)", "RBA", "%", 46],
  ["CC12CCC(=O)C=C1CCC1C2C=CC2(C)C1C1CC1[C@@]21CCC(=O)O1 (stereo not given in full)", "Mineralocorticoid receptor (Rattus norvegicus)", "RBA", "%", 310],
  ["CC12CCC(=O)C=C1C=CC1C2C=CC2(C)C1C1CC1[C@@]21CCC(=O)O1 (stereo not given in full)", "Mineralocorticoid receptor (Rattus norvegicus)", "RBA", "%", 290],
  ["CC12CCC(=O)C=C1C[C@@H](SC(=O)c1ccccc1)C1C2C=CC2(C)C1CC[C@@]21CCC(=O)O1 (stereo not given in full)", "Mineralocorticoid receptor (Rattus norvegicus)", "RBA", "%", 11]
]}

Now examine the next entry.
Task item: GET /values?readout=RBA&item= CC12CCC(=O)C=C1C1CC1C1C2C=CC2(C)C1C1CC1[C@@]21CCC(=O)O1 (stereo not given in full)
Reply: 300

----------
# Assayed System: Mineralocorticoid receptor (Rattus norvegicus)
# Assay Notes: Antagonist activity against Mineralocorticoid receptor after subcutaneous administration in Male Sprague Dawley rats; (+) =positive
# Type: functional, organism-based
# Condition Info: filed as antagonist
Readout: Activity

Below: 8 compounds and their reported Activity.
{"columns": ["Compound", "Assayed System", "Value Reported"],
 "data": [
  ["CC12C=CC(=O)C=C1C=CC1C2C=CC2(C)C1CC[C@@]21CCC(=O)O1 (some centres undefined)", "Mineralocorticoid receptor (Rattus norvegicus)", "Antagonist"],
  ["CC(=O)S[C@@H]1CC2=CC(=O)CC[C@]2(C)[C@H]2CC[C@@]3(C)[C@@H](CC[C@@]34CCC(=O)O4)[C@H]12", "Mineralocorticoid receptor (Rattus norvegicus)", "Antagonist"],
  ["CC(C)(C)C(=O)S[C@@H]1CC2=CC(=O)C=CC2(C)C2C=CC3(C)C(CC[C@@]34CCC(=O)O4)C21 (some centres undefined)", "Mineralocorticoid receptor (Rattus norvegicus)", "Antagonist"],
  ["CC(=O)S[C@@H]1CC2=CC(=O)C=CC2(C)C2C=CC3(C)C(CC[C@@]34CCC(=O)O4)C21 (some centres undefined)", "Mineralocorticoid receptor (Rattus norvegicus)", "Antagonist"],
  ["CC(C)(C)C(=O)S[C@@H]1CC2=CC(=O)CCC2(C)C2C=CC3(C)C(CC[C@@]34CCC(=O)O4)C21 (some centres undefined)", "Mineralocorticoid receptor (Rattus norvegicus)", "Antagonist"],
  ["CC12CCC(=O)C=C1C=CC1C2C=CC2(C)C1CC[C@@]21CCC(=O)O1 (some centres undefined)", "Mineralocorticoid receptor (Rattus norvegicus)", "Antagonist"],
  ["CC12C=CC(=O)C=C1[C@H]1C[C@H]1C1C2C=CC2(C)C1CC[C@@]21CCC(=O)O1 (some centres undefined)", "Mineralocorticoid receptor (Rattus norvegicus)", "Antagonist"],
  ["C[C@]12CCC(=O)C=C1C=C[C@@H]1[C@@H]2CC[C@@]2(C)[C@H]1CC[C@@]21CCC(=O)O1", "Mineralocorticoid receptor (Rattus norvegicus)", "Antagonist"]
]}

Now examine the next entry.
Task item: GET /values?readout=Activity&item= CC12CCC(=O)C=C1[C@H]1C[C@H]1C1C2C=CC2(C)C1CC[C@@]21CCC(=O)O1 (some centres undefined)
Reply: Antagonist

----------
# Assayed System: Mineralocorticoid receptor (Rattus norvegicus)
# Assay Notes: Relative binding affinity against mineralocorticoid receptor determined in rat renal cytosol using [3]Ald as ligand
Readout: RBA (%)
A number alone suffices; assume %.

{"columns": ["Molecule", "Unit String", "Value Reported"],
 "data": [
  ["CC12C=CC(=O)C=C1C1CC1C1C2C=CC2(C)C1C1CC1[C@@]21CCC(=O)O1 (stereo not given in full)", "%", 250],
  ["CC(=O)S[C@@H]1CC2=CC(=O)CCC2(C)C2C=CC3(C)C(C4CC4[C@@]34CCC(=O)O4)C21 (stereo not given in full)", "%", 370],
  ["CC12C=CC(=O)C=C1CCC1C2C=CC2(C)C1CC[C@@]21CCC(=O)O1 (stereo not given in full)", "%", 120],
  ["CC12CCC(=O)C=C1CCC1C2C=CC2(C)C1CC[C@@]21CCC(=O)O1 (stereo not given in full)", "%", 570],
  ["CC(=O)S[C@@H]1CC2=CC(=O)C=CC2(C)C2C=CC3(C)C(CC[C@@]34CCC(=O)O4)C21 (stereo not given in full)", "%", 23]
]}

Task item: GET /values?readout=RBA&item= CC12C=CC(=O)C=C1C[C@@H](SC(=O)c1ccccc1)C1C2C=CC2(C)C1CC[C@@]21CCC(=O)O1 (stereo not given in full)
Reply: 3.7

Task item: GET /values?readout=RBA&item= CC12CCC(=O)C=C1C=CC1C2C=CC2(C)C1CC[C@@]21CCC(=O)O1 (stereo not given in full)
Reply: 70

Task item: GET /values?readout=RBA&item= "C[C@]12CCC(=O)C=C1C=C[C@@H]1[C@@H]2CC[C@@]2(C)[C@H]1CC[C@@]21CCC(=O)O1"
Reply: 1.7

Task item: GET /values?readout=RBA&item= CC12C=CC(=O)C=C1C=CC1C2C=CC2(C)C1CC[C@@]21CCC(=O)O1 (stereo not given in full)
Reply: 22

Task item: GET /values?readout=RBA&item= CC12C=CC(=O)C=C1[C@H]1C[C@H]1C1C2C=CC2(C)C1CC[C@@]21CCC(=O)O1 (stereo not given in full)
Reply: 32

----------
# Assayed System: Mineralocorticoid receptor (Rattus norvegicus) (UniProt P22199)
# Sequence (whole entry): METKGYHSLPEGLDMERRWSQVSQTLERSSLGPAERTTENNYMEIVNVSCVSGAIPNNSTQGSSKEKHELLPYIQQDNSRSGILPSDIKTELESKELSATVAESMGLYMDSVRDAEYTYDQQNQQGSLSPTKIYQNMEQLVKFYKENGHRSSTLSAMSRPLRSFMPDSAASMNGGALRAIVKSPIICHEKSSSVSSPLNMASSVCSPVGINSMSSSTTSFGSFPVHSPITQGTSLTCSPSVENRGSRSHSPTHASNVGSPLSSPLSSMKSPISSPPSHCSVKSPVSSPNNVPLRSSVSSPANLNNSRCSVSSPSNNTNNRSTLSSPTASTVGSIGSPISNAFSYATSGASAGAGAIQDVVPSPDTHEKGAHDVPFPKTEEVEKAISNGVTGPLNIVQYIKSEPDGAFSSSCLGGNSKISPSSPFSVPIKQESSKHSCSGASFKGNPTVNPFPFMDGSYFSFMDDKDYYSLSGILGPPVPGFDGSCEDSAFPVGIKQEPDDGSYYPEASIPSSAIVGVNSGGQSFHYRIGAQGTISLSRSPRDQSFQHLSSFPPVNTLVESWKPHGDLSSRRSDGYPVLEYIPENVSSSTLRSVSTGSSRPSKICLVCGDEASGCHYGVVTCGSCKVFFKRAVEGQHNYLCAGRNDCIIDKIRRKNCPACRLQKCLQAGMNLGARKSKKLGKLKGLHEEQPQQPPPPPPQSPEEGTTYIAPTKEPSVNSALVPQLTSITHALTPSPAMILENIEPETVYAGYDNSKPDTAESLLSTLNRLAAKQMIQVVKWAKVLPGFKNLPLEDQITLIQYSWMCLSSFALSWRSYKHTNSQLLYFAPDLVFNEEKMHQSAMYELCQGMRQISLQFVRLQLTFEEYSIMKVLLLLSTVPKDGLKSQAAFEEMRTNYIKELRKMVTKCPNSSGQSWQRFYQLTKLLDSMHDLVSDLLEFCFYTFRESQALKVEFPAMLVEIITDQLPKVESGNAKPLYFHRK
# Assay Notes: Relative binding affinity against mineralocorticoid receptor determined in rat renal cytosol using [3]Ald as ligand
Readout: RBA (%)
A number alone suffices; assume %.

Below: 3 compounds and their reported RBA.
{"columns": ["Compound", "RBA / %"],
 "data": [
  ["CC12CCC(=O)C=C1C1CC1C1C2C=CC2(C)C1CC[C@@]21CCC(=O)O1 (some centres undefined)", 580],
  ["CC(C)(C)C(=O)S[C@@H]1CC2=CC(=O)C=CC2(C)C2C=CC3(C)C(CC[C@@]34CCC(=O)O4)C21 (some centres undefined)", 1000],
  ["CC(=O)S[C@@H]1CC2=CC(=O)CCC2(C)C2C=CC3(C)C(CC[C@@]34CCC(=O)O4)C21 (some centres undefined)", 43]
]}

Task item: GET /values?readout=RBA&item= "CC(=O)S[C@@H]1CC2=CC(=O)CC[C@]2(C)[C@H]2CC[C@@]3(C)[C@@H](CC[C@@]34CCC(=O)O4)[C@H]12"
Reply: 3.2

Task item: GET /values?readout=RBA&item= CC12CCC(=O)C=C1[C@H]1C[C@H]1C1C2C=CC2(C)C1CC[C@@]21CCC(=O)O1 (some centres undefined)
Reply: 88

Task item: GET /values?readout=RBA&item= CC(=O)S[C@@H]1CC2=CC(=O)C=CC2(C)C2C=CC3(C)C(C4CC4[C@@]34CCC(=O)O4)C21 (some centres undefined)
Reply: 91

Task item: GET /values?readout=RBA&item= CC12C=CC(=O)C=C1C1CC1C1C2C=CC2(C)C1CC[C@@]21CCC(=O)O1 (some centres undefined)
Reply: 320

Task item: GET /values?readout=RBA&item= CC12C=CC(=O)C=C1C=CC1C2C=CC2(C)C1C1CC1[C@@]21CCC(=O)O1 (some centres undefined)
Reply: 160

Task item: GET /values?readout=RBA&item= CC12C=CC(=O)C=C1CCC1C2C=CC2(C)C1C1CC1[C@@]21CCC(=O)O1 (some centres undefined)
Reply: 220
